test system: rRNA in HCV-replicon RNA-containing Huh7 cells; experiment: rRNA levels in HCV replicon cells (cellular toxicity), Q-RT-PCR after 96 h; conditions: 100 μM
The compounds listed here are annotated with their Log10 RNA reduction (100 μM) rRNA.
Expressed in log10, but write only the number.

{"COMPOUND": "O=c1cnn([C@@H]2O[C@H](CO)[C@@H](O)[C@H]2O)c(=O)[nH]1", "Log10 RNA reduction (100 μM) rRNA [log10]": 0.61}

Then this compound:
Entry NC(=O)c1ncn([C@@H]2O[C@H](CO)[C@@H](O)[C@H]2O)c1O , Log10 RNA reduction (100 μM) rRNA reported as 0.21

----------
Let's look at some compounds and their measured log reduction at 100 µM.
test system: HCV-replicon RNA-containing Huh7 cells (HCV RNA); test: HCV replicon assay: HCV RNA quantified by Q-RT-PCR after 96 h of compound exposure; format: cell-based, hepatitis C virus (HCV); conditions: Hepatitis C virus, Huh-7, 96 h, read-out: Corrected HCV RNA log10 reduction at 100 μM
// return a plain number; no unit text

Use the examples below as a reference point.
{"COMPOUND": "O=c1[nH]c(=O)n([C@H]2C[C@H](O)[C@@H](CO)O2)cc1F [2′-deoxy-5FU, 2′-deoxy-5-fluorouridine]", "log reduction at 100 µM": 0.04}
{"COMPOUND": "NC(=O)c1ncn([C@@H]2O[C@H](CO)[C@@H](O)[C@H]2O)c1O [Mizoribine]", "log reduction at 100 µM": 0.08}
{"COMPOUND": "NC(=O)NO [Hydroxy Urea, hydroxy urea]", "log reduction at 100 µM": -0.08}

Noted for COc1c(C)c2c(c(O)c1C/C=C(\C)CCC(=O)O)C(=O)OC2 [MPA, mycophenolic acid] : its log reduction at 100 µM reads 0.07

----------
Quick list: Corrected HCV RNA log10 reduction at 100 μM per entry.
tested on: HCV-replicon RNA-containing Huh7 cells (HCV RNA); experiment: HCV replicon assay: HCV RNA quantified by Q-RT-PCR after 96 h of compound exposure; assay type: cell-based, hepatitis C virus (HCV); conditions: 100 μM, 96 h, corrected by subtraction of rRNA
Write it as a number; the unit log10 goes unstated.

Observe how each entry below is paired with its result.
{"COMPOUND": "O=c1cnn([C@@H]2O[C@H](CO)[C@@H](O)[C@H]2O)c(=S)[nH]1 [2-thio-6-azauridine]", "REPORTED RESULT": 0.19}
{"COMPOUND": "COc1c(C)c2c(c(O)c1CCOP(=O)(O)CP(=O)(O)OC[C@H]1O[C@@H](n3cnc4c(N)ncnc43)[C@H](O)[C@@H]1O)C(=O)OC2 [Compound C2-MAD]", "REPORTED RESULT": 0.08}

Okay, next one:
Documented Corrected HCV RNA log10 reduction at 100 μM of NC(=O)c1csc([C@@H]2O[C@H](CO)[C@@H](O)[C@H]2O)n1 [Tiazofurin, tiazofurin] : −0.13

----------
This listing pairs compounds with measured EC90.
system: HCV-replicon RNA-containing Huh7 cells (HCV RNA); test: HCV replicon assay: HCV RNA quantified by Q-RT-PCR after 96 h of compound exposure; type: cell-based, hepatitis C virus (HCV); details: Hepatitis C virus, Huh-7; 96 h, read from HCV curves corrected for rRNA reduction; read-out: Corrected HCV RNA EC90
Where a name gives a salt, the structure may show the parent alone.

Use the examples below as a reference point.
{"COMPOUND": "COc1c(C)c2c(c(O)c1C/C=C(\\C)CCC(=O)O)C(=O)OC2", "EC90": "> 100 µM"}
{"COMPOUND": "Nc1ccn([C@@H]2C=C(CO)[C@@H](O)[C@H]2O)c(=O)n1", "EC90": "2.5 µM"}
{"COMPOUND": "NC(=O)NO [Hydroxy Urea, hydroxy urea]", "EC90": "> 100 µM"}
{"COMPOUND": "C[C@@]1(O)[C@H](O)[C@@H](CO)O[C@H]1n1ccc(N)nc1=O", "EC90": "10.4 µM"}
{"COMPOUND": "CC(=O)N(O)CCCCCNC(=O)CCC(=O)N(O)CCCCCNC(=O)CCC(=O)N(O)CCCCCN [Deferoxamine, deferoxamine mesylate]", "EC90": "> 100 µM"}

// EC90 value for O=c1cnn([C@@H]2O[C@H](CO)[C@@H](O)[C@H]2O)c(=O)[nH]1 : > 100 µM

----------
tested on: HCV-replicon RNA-containing Huh7 cells (HCV RNA); assay: HCV replicon assay: HCV RNA quantified by Q-RT-PCR after 96 h of compound exposure; format: cell-based, hepatitis C virus (HCV); details: Hepatitis C virus, Huh-7, 96 h, read-out: Corrected HCV RNA EC90
REPORTED ENDPOINT: EC90 (µM)
Express it in µM; write the number only.

// compound O=C(O)C[C@H](NC(=O)CP(=O)(O)O)C(=O)O [PALA, N-(phosphonoacetyl)-L-aspartate] , assay HCV-replicon RNA-containing Huh7 cells (HCV RNA), EC90 value: 7.6

Entry Nc1ccn([C@@H]2O[C@H](CO)[C@@H](O)C2(F)F)c(=O)n1 [dFdC, difluorodeoxycytidine] , tested on HCV-replicon RNA-containing Huh7 cells (HCV RNA), has a reported EC90 of 0.17

Entry NC(=O)c1[nH]nc([C@@H]2O[C@H](CO)[C@@H](O)[C@H]2O)c1O [pyrazofurin] : EC90 on HCV-replicon RNA-containing Huh7 cells (HCV RNA) = 3.8

----------
tested on: HCV-replicon RNA-containing Huh7 cells (HCV RNA); experiment: HCV replicon assay: HCV RNA quantified by Q-RT-PCR after 96 h of compound exposure; format: cell-based, hepatitis C virus (HCV); settings: Hepatitis C virus, Huh-7; 96 h, read from HCV curves corrected for rRNA reduction; read-out: Corrected HCV RNA EC90
REPORTED ENDPOINT: EC90

{"COMPOUND": "O=c1[nH]c(=O)n([C@H]2C[C@H](O)[C@@H](CO)O2)cc1F", "EC90": "> 100 µM"}
{"COMPOUND": "C[C@@]1(O)[C@H](O)[C@@H](CO)O[C@H]1n1cnc2c(N)ncnc21", "EC90": "< 1 µM"}
{"COMPOUND": "CN(Cc1cnc2nc(N)nc(N)c2n1)c1ccc(C(=O)N[C@@H](CCC(=O)O)C(=O)O)cc1 [Methotrexate, methotrexate]", "EC90": "> 100 µM"}

Could you now consider this next compound?
Field EC90 (system: HCV-replicon RNA-containing Huh7 cells (HCV RNA)) for entry NC(=O)c1ncn([C@@H]2O[C@H](CO)[C@@H](O)[C@H]2O)c1O = > 100 µM

----------
test system: rRNA in HCV-replicon RNA-containing Huh7 cells; assay: rRNA levels in HCV replicon cells (cellular toxicity), Q-RT-PCR after 96 h; settings: 100 μM
Some compounds, each annotated with its measured Log10 RNA reduction (100 μM) rRNA.
Give your result in log10 as a bare value.

The recorded Log10 RNA reduction (100 μM) rRNA for Nc1ccn(C2OC(CO)C(O)C2=CF)c(=O)n1 (stereo not drawn) is 1.78

----------
system: HCV-replicon RNA-containing Huh7 cells (HCV RNA); assay: HCV replicon assay: HCV RNA quantified by Q-RT-PCR after 96 h of compound exposure; format: cell-based, hepatitis C virus (HCV); details: 100 μM, 96 h, corrected by subtraction of rRNA
REPORTED ENDPOINT: Corrected HCV RNA log10 reduction at 100 μM (log10)
# unit: log10 | format: bare number

{"MOLECULE": "Nc1ccn(C2OC(CO)C(O)C2=CF)c(=O)n1 (centres unmarked)", "EXPERIMENTAL TARGET": "HCV-replicon RNA-containing Huh7 cells (HCV RNA)", "REPORTED RESULT": "−0.19"}
{"MOLECULE": "CN(Cc1cnc2nc(N)nc(N)c2n1)c1ccc(C(=O)N[C@@H](CCC(=O)O)C(=O)O)cc1 [Methotrexate, methotrexate]", "EXPERIMENTAL TARGET": "HCV-replicon RNA-containing Huh7 cells (HCV RNA)", "REPORTED RESULT": 0.11}

Quick note, Corrected HCV RNA log10 reduction at 100 μM for O=C(O)C[C@H](NC(=O)CP(=O)(O)O)C(=O)O [PALA, N-(phosphonoacetyl)-L-aspartate] landed at 1.30

Recorded result, Nc1n[nH]c(N)n1 , Corrected HCV RNA log10 reduction at 100 μM: 0.32

# molecule NC(=O)c1[nH]nc([C@@H]2O[C@H](CO)[C@@H](O)[C@H]2O)c1O ; its Corrected HCV RNA log10 reduction at 100 μM = 1.46
